Hello, the source for this data is PubChem BioAssay AID504848, in case you need it.

Assay: Confirmation screen for delayed death inhibitors of the malarial parasite plastid, 96 hour incubation; further: nearly all actives have a fitted effect of over 60% in size; further: potency means the concentration at half of the fitted maximal effect
Settings: P. falciparum luciferase growth in erythrocytes; series mostly up to 28.7 µM
Hit rate of the full screen: of about 2,300 compounds, about 1,400 (61%) were called active. Not shown: some 29% with an inconclusive outcome. So high a share suggests a set chosen from earlier hits. Some of the results follow.
READOUT: Potency

Before answering, review these 6 worked examples.
1) COc1ccc(NS(=O)(=O)c2ccc(N3CCOCC3)c(NC(=O)c3ccc(OC)cc3)c2)cc1 : 11.2 µM (active)
2) Cc1cc(C)cc(-n2c(N)c(C(=O)Nc3c(C)n(C)n(-c4ccccc4)c3=O)c3nc4ccccc4nc32)c1 : 3.16 µM (active)
3) O=C(NC1CCCC1)c1ccc([N+](=O)[O-])s1 : 10 µM (active)
4) COc1cc2c(cc1OC)CN(C(=O)c1cc(C3CC3)nn1-c1ccccc1)CC2 : 12.6 µM (active)
5) CN(C)c1ccc(S(=O)(=O)N2CCCCC2)cc1NC(=O)C1=NN(c2ccccc2)C(=O)CC1 : 3.55 µM (active)
6) N#Cc1cccc(NC(=O)Cn2c3[n+](c4ccc(C(F)(F)F)cc42)CCCCC3)c1 : 0.251 µM (active)

Query: I am curious: what Potency value has been reported for Fc1ccccc1N1CCN(c2ncnc3[nH]ncc23)CC1 ?
Response: inactive

Query: I am curious: what Potency value has been reported for Cc1ccccc1-n1nc2c(c1NC(=O)C1CCCC1)CS(=O)(=O)C2 ?
Response: inactive

Query: I am curious: what Potency value has been reported for CCOC(=O)c1ccc(N2N=C(C)/C(=C/C=C/c3ccco3)C2=O)cc1 ?
Response: 5.62 µM (active)

----------
Assay: Confirmation screen for delayed death inhibitors of the malarial parasite plastid, 96 hour incubation; further: nearly all actives have a fitted effect of over 60% in size; further: potency means the concentration at half of the fitted maximal effect
Settings: P. falciparum luciferase growth in erythrocytes; series mostly up to 28.7 µM
About 1,400 (61%) of roughly 2,300 compounds were called active. Inconclusive results (about 29%) are left out. The set was probably picked from earlier hits. This is one part of the list.
READOUT: Potency

1) CCOC(=O)NC(=O)COC(=O)c1ccc(O)cc1 : inactive
2) COc1ccc(OC)c(NC(=O)c2nc(S(=O)(=O)Cc3ccccc3)ncc2Cl)c1 : inactive
3) C[C@H]1CN=C2N(CCNC(=O)CCC3CCCCC3)[C@H](Cc3ccc(O)cc3)CN21 : 6.31 µM (active)
4) Cc1ccc(C(=O)NCCn2ccc3ccccc32)cc1[N+](=O)[O-] : inactive
5) O=C(CCC1CCCCC1)NCCN1C2=NC[C@H](Cc3ccccc3)N2C[C@H]1Cc1ccc(O)cc1 : 6.31 µM (active)

Query: I am curious: what Potency value has been reported for Cc1cccc(Oc2nc3ccccn3c(=O)c2/C=C(\C#N)C(=O)NC2CCS(=O)(=O)C2)c1C (centres undefined) ?
Response: 12.6 µM (active)

Query: I am curious: what Potency value has been reported for Cc1ccc(Oc2nc3ccccn3c(=O)c2/C=C(\C#N)C(=O)NC2CCS(=O)(=O)C2)c(C)c1 (centres undefined) ?
Response: 10 µM (active)

Query: I am curious: what Potency value has been reported for N#C/C(=C\c1c(Oc2ccccc2Cl)nc2ccccn2c1=O)C(=O)NC1CCS(=O)(=O)C1 (centres undefined) ?
Response: 12.6 µM (active)

Query: I am curious: what Potency value has been reported for Cc1ccc(-n2nnnc2Sc2nc([N+](=O)[O-])nn2C)cc1C ?
Response: 3.16 µM (active)
